This listing pairs sequences with measured switch fluorescence ratio.
test system: ATP; assay: switch fluorescence ratio, 500 uM ATP over buffer (Cy3 cluster intensity, sum of 5 cycles each) (fold (ratio)); higher = stronger signal-on switching upon ATP binding; sequences stand for … in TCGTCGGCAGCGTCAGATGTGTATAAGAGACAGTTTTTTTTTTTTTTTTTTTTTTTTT…TC; details: aptamer strand: ATP DNA aptamer (quencher-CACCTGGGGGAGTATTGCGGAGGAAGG + anchor), 100 nM annealed; ATP concentration: 500 uM;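 also: ATP exposure 15 min at 22 °C before imaging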
Just the number.

Check out these entries, answers already filled in.
1) GGGGAGCATT; 1.04
2) GATGTAGGTT; 0.98
3) TACCGGATTT; 0.979
4) GCGCGAGTAG; 1.03
5) TTTCCATTTT; 1.02
6) GGGCTAGTAC; 1.13

q: What measured switch fluorescence ratio goes with "CTGGGCACGT" ?
a: 0.997

q: For the sequence shown here, "TTTTTTTGAA" , give the reported switch fluorescence ratio.
a: 0.979

* * *

test system: ATP; assay: switch fluorescence ratio, 500 uM ATP over buffer (Cy3 cluster intensity, sum of 5 cycles each) (fold (ratio)); higher = stronger signal-on switching upon ATP binding; sequences stand for … in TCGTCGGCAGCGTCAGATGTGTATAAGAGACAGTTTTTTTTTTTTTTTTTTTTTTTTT…TC; settings: aptamer strand: ATP DNA aptamer (quencher-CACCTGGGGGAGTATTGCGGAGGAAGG + anchor), 100 nM annealed; ATP concentration: 500 uM;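 also: ATP exposure 15 min at 22 °C before imaging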
readout: switch fluorescence ratio

Look over these answered cases.
1. TGGGAAGATT; 1.03
2. AAGCGTGGGG; 1.02
3. GTTTATCCGT; 0.996

q: Given "GTTGGTGGCT" , state its recorded switch fluorescence ratio.
a: 0.958

* * *

Each record here notes measured switch fluorescence ratio.
tested on: ATP; assay: switch fluorescence ratio, 500 uM ATP over buffer (Cy3 cluster intensity, sum of 5 cycles each) (fold (ratio)); higher = stronger signal-on switching upon ATP binding; sequences stand for … in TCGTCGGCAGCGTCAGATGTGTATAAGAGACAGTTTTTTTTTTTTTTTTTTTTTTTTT…TC; conditions: aptamer strand: ATP DNA aptamer (quencher-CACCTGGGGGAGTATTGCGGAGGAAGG + anchor), 100 nM annealed; ATP concentration: 500 uM;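 also: ATP exposure 15 min at 22 °C before imaging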
Could you keep your reply to the number by itself?

1. AGAATGATTA; 0.986
2. TATGTACGAT; 1.05
3. GGTGGGAAGA; 1.02
4. TCTATCAGTG; 1.02

Next:
q: For the sequence "CCGCGAGCTA" , what switch fluorescence ratio is on record?
a: 4.52

* * *

# switch fluorescence ratio annotations
system: ATP; assay: switch fluorescence ratio, 500 uM ATP over buffer (Cy3 cluster intensity, sum of 5 cycles each) (fold (ratio)); higher = stronger signal-on switching upon ATP binding; sequences stand for … in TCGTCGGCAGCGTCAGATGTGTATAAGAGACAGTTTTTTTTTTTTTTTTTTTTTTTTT…TC; conditions: aptamer strand: ATP DNA aptamer (quencher-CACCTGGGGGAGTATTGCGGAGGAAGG + anchor), 100 nM annealed; ATP concentration: 500 uM;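 also: ATP exposure 15 min at 22 °C before imaging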
Lab note: jot down the number only; don't add units.

The examples below pair each entry with its known result.
1) TTGTTGGTAG; 1.03
2) AATTGGTTAG; 0.984
3) AATCTTGTTG; 0.998
4) TATTGTCCTT; 1.02
5) GGGTGTTTTC; 0.998
6) GGAGCCGGGG; 1

q: For the record "CCGTTTGGTT" , what value of switch fluorescence ratio is listed for ATP?
a: 0.995

q: Value wanted: switch fluorescence ratio (ATP) of entry "CGGTTTAGGG"
a: 0.986

q: Form entry - test system: ATP; read-out: switch fluorescence ratio; sequence: "TCGTTCGGCT"
a: 1.01

q: Value wanted: switch fluorescence ratio (ATP) of entry "TGCCATGTGT"
a: 1.03

q: Requested read-out switch fluorescence ratio, target or system ATP, entry "TGCAGTGAAT"
a: 0.999

q: // lookup switch fluorescence ratio | system=ATP | key= "GAGACCGTGT"
a: 1.01

q: Request: switch fluorescence ratio, test system ATP, entry "TCGTTCGGGG"
a: 1.04

q: // map "TTTCGGTCGT" to recorded switch fluorescence ratio (system: ATP);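 also: ATP exposure 15 min at 22 °C before imaging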
a: 1.03

q: switch fluorescence ratio of "TTCACTGATG" on ATP?
a: 1.05

q: Any idea what switch fluorescence ratio came out for "CTGGAAGCTA" on ATP?
a: 1.6

q: What value of switch fluorescence ratio on ATP does "AGTGATGTTC" have?
a: 0.976
